biological target: T1, biotin-peptide FNFTDFYCEK (human); assay: ELISA biotin-peptide; scFv 10 ug/mL; repI
T1 peptide: Biotin-FNFTDFYCEK
Where no end group is shown, it is not given here. The star is where a group is joined. Biotin = O=C1N[C@H]2[C@H](CS[C@H]2CCCCC(=O)*)N1
# key: entry, value: OD450
Write down the numeric answer in OD and omit the unit.

// known answers, use as guide
{"binder": "CCR9_HUM2 scFv (humanized anti-CCR9 scFv, SEQ ID NO: 17 with C-terminal 6xHis tag) (scFv) scFv: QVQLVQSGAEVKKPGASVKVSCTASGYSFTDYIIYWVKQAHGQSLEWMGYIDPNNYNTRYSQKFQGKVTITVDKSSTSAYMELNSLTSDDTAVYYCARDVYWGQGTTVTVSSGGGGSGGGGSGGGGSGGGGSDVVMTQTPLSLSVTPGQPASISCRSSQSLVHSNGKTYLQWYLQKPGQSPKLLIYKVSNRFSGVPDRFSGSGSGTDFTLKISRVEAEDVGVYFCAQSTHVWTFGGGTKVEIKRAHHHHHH", "readoutUnit": "OD", "OD450": 0.05}
{"binder": "Comparative antibody 1 (Comp-1) scFv, SEQ ID NO: 10 from WO2023/037125 A1, His-tagged (scFv) scFv: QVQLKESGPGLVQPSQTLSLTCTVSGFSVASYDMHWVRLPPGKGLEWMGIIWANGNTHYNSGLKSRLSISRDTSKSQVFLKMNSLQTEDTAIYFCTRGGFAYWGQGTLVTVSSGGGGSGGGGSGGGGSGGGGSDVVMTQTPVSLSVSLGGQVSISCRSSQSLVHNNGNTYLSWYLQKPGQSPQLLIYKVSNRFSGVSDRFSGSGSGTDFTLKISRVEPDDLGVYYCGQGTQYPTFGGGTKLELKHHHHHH", "readoutUnit": "OD", "OD450": 0.06}

# ---- query binder ----
Value lookup for OD450; key = Comparative antibody 3 (Comp-3) scFv, SR_92R (Somovilla-Crespo et al. 2018), His-tagged (scFv) scFv: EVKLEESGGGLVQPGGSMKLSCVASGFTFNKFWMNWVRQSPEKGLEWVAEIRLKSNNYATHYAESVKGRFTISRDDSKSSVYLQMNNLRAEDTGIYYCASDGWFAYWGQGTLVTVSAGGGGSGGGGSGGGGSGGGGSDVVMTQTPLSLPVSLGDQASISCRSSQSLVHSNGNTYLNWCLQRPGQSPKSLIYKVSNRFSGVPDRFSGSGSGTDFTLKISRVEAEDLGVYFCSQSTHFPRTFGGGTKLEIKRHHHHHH
0.09
